Quick list: dissolution rate per entry.
Protocol summary: dissolution rate of saccharide or sugar alcohol, 6-vessel dissolution tester
Assay type: physicochemical
Applied conditions: 2 g in desalted water 500 mL, 37° C., paddle 50 min^−1; rate constant k per surface area
Protocol: In the present invention, the “dissolution rate” is obtained by using a 6-vessel dissolution tester (NTR-6100, Toyama Sangyo Co., Ltd.). […] Samples were taken at given time intervals after addition, changes in the dry weight of the samples per unit time were calculated, and dissolution rate constant k was calculated by the Noyes-Whitney equation. […] As the specific surface area, the value measured by a laser diffraction particle size analyzer [Mastersizer] of Malvern Instruments Ltd. was used. […]
Property measured: dissolution rate

INSERT INTO measurements (compound, value) VALUES
  ('OC[C@@H](O)[C@@H](O)CO [Erythritol]', '11.99 1/min·m^2'),
  ('OC[C@H]1O[C@@](CO)(O[C@H]2O[C@H](CO)[C@@H](O)[C@H](O)[C@H]2O)[C@@H](O)[C@@H]1O [Purification sucrose]', '2.80 1/min·m^2'),
  ('OC[C@@H](O)[C@@H](O)[C@H](O)[C@H](O)CO [α-form mannitol]', '4.62 1/min·m^2'),
  ('OC[C@@H](O)[C@H](O)[C@@H](O)CO [Xylitol]', '3.57 1/min·m^2'),
  ('OC[C@H]1O[C@@H](O[C@H]2[C@H](O)[C@@H](O)C(O)O[C@@H]2CO)[C@H](O)[C@@H](O)[C@H]1O (stereo partly drawn) [Lactose]', '5.68 1/min·m^2'),
  ('OC[C@@H](O)[C@@H](O)[C@H](O)[C@H](O)CO [β-form mannitol]', '2.28 1/min·m^2');
